Property: protein stability index; scope: individual sequences
# EXPERIMENT_SUMMARY: protein stability index of a GFP-peptide fusion (GPS, HEK-293T) (PSI 1-6); higher = more stable;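 note: 24-mer peptide tiles fused after GFP, lentivirally expressed, FACS-sorted into six equal bins by GFP/DsRed ratio, decoded by Illumina sequencing, PSI is the read-weighted mean bin number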
# CONDITION_DETAILS: treatment: DMSO; c terminus: a fixed tail appended
QUANTITY_MEASURED: protein stability index

> print(dat)
                       residue.codes        quantity.measured  measurement
1  RTSTFDPSHSDNLLHGLNLLWRKQ [KLHL14]  protein stability index         2.96
2    ATIFALSTMTSSVQIYNLSQNIQE [ATL3]  protein stability index         3.03
3   MQVIAIVLYLMMPIVNISEVLGPL [PHTF1]  protein stability index         3.08

---

# EXPERIMENT_SUMMARY: protein stability index of a GFP-peptide fusion (GPS, HEK-293T) (PSI 1-6); higher = more stable
# CONDITION_DETAILS: treatment: MLN4924 1 uM, 8 h; c terminus: a fixed tail appended
QUANTITY_MEASURED: protein stability index

> print(dat)
                          residue.codes        quantity.measured  measurement
 1     IIYVASNHFVWRLIPVPMATQIQQ [VPS39]  protein stability index         3.09
 2    GALWGLQAQAVQTEQAVALLRDRT [SCARA5]  protein stability index         3.03
 3      ENCLDAKSTSIQVIVKEGGLKLIQ [MLH1]  protein stability index         2.94
 4     LHDIFENKTDVVLILELVSGGELF [DAPK3]  protein stability index         2.39
 5     SVKSKIGELEDESLNRACHQQNKI [CEP70]  protein stability index          4.7
 6     RYISMSVWTSPRRLVELAGQSLLK [PRAME]  protein stability index         2.96
 7     LGLVGYYIFRVANHQKDLFRRTDG [DHCR7]  protein stability index          2.6
 8  MDGRWQCSCWAWFLLVLAVVAGDT [ADAMTSL2]  protein stability index         2.45
 9    GGVGYGDSKDCILEPLSLPESPGG [ZNF277]  protein stability index         4.98
10     VLLQTSPYHVDSLLQLSDACRFQE [TCF25]  protein stability index         2.41
11   TITLNCPRNSDMKNQGEENGFPDS [EDARADD]  protein stability index         4.23
12    ASALRTRMTGGRPPLPPPDDPATL [DYRK1B]  protein stability index         4.87
13     REHKETCEMDWSDKMEAYNIDETC [TEKT4]  protein stability index         5.14
14    KLFYFKIWAFLDVSFVERILKSQK [FBXO39]  protein stability index         2.47
15      GSQIHDQFILRVSPDLEWHAACLK [ISL2]  protein stability index         2.66
16  LSLVLGNVNVTLLSKQAKFAYKDE [TMEM120A]  protein stability index         2.23
17    QDEEDMFMVVDLLLGGDLRYHLQQ [STK32A]  protein stability index          2.1
18  QKFRNQFLSFSMYQSFVQFLQYYY [TMEM120A]  protein stability index         2.41
19    IISSDELNVRSEEQVFNAVMAWVK [KLHL20]  protein stability index         2.42
20     APATGSGTPGPFTKEGGMLAYYEV [CHIT1]  protein stability index         2.63
21    DRLVVTECQLTHSHPACPLEFAYY [ZSWIM9]  protein stability index         2.53
22    DRAVNDYPSLYYPEMYILKGGYKE [CDC25B]  protein stability index         2.85
23     ASLHTLLGDPCPMLESPGAPCRSA [HDAC6]  protein stability index         3.83
24     YRHLLEGEDCKLPPQPCATACKPV [KRT36]  protein stability index         3.93
25     EAPKYHIPYWVAYYLALLLSLLVM [NSDHL]  protein stability index         2.53
26   EIATKPHEKIGFPAARRCHSCVQI [KLHDC10]  protein stability index         2.59
27     LRKAVLKNLYKLASQCCGVHVISL [PTGFR]  protein stability index         2.73
28   GSEENGRYFSLSLMSGALAVNQKI [PCDHGC5]  protein stability index          2.6
29      VLGIQVKCFHEIITIGYRVYHSYD [CDS1]  protein stability index         3.04
30     AVLRRIQLQPTSIEKEVFPIMAKE [GMPPB]  protein stability index         2.57
31    SRAILQRVQAAAFGPGQTLLSSVH [ALKBH7]  protein stability index         2.65
32     EKEMKAQEQRLGIRISMSHEEEPL [GMPPB]  protein stability index         5.24
33    RTSLSSGATVRSFSINSRLASSLG [CDC14A]  protein stability index         2.99
34   MGWEGPNSRVDDTFWASWRAFAQI [MIR22HG]  protein stability index         2.21
35  DLGGSIYANLALSGLIEIQSYPLC [SLC22A15]  protein stability index         2.63
36     SSCHFARDSSFLISGGFDRTVAIW [WDR88]  protein stability index         2.51
37      KSNQPKSLEDLIFESLPENASHKL [ATE1]  protein stability index          4.5
38    ERNEVRNVFKELQIMQGLEHPFLV [STK32A]  protein stability index         2.72
